# protocol: Metabolic stability in human liver microsomes at 1 umol/L after 20 mins by HPLC analysis
# Type: ADME, Microsome
# cond: read-out: Stability
quantity-name: microsomal CLint at 1 µM (µL/min/mg)
Please state the figure in µL/min/mg; there is no need to write the unit.

Solved cases (4 shown):
{"structure-string": "OCCn1ccc2ncnc(Nc3ccc(Oc4cccc5[nH]ccc45)c(Cl)c3)c21", "value": 204}
{"structure-string": "OCCn1ccc2ncnc(Nc3ccc(Oc4cccc5sncc45)c(Cl)c3)c21", "value": 129}
{"structure-string": "CC(=O)NCCn1ccc2ncnc(Nc3ccc(Oc4cccc5sncc45)c(Cl)c3)c21", "value": 133}
{"structure-string": "CC(C)(CO)C(=O)NCCn1ccc2ncnc(Nc3ccc(Oc4cccc5sncc45)c(Cl)c3)c21", "value": 113}

QUERY: Param item = O=C1Cc2c(cccc2Oc2ccc(Nc3ncnc4ccn(CCO)c34)cc2Cl)N1 ; retrieve measured microsomal CLint at 1 µM.
RESULT: 141

QUERY: Please report the recorded microsomal CLint at 1 µM for CC(C)(C)C(=O)NCCn1ccc2ncnc(Nc3ccc(Oc4cccc5sncc45)c(Cl)c3)c21 .
RESULT: 94

QUERY: Any idea what microsomal CLint at 1 µM was measured for Cn1ncc2c(Oc3ccc(Nc4ncnc5ccn(CCO)c45)cc3Cl)cccc21 ?
RESULT: 219

QUERY: Endpoint output: microsomal CLint at 1 µM of O=C(NCCn1ccc2ncnc(Nc3ccc(Oc4cccc5sncc45)c(Cl)c3)c21)[C@@H]1CCCN1 . Value?
RESULT: 61

====

# assayed-system: Mitogen-activated protein kinase kinase kinase 5 (Homo sapiens, UniProt Q99683)
# Sequence (Q99683 whole entry): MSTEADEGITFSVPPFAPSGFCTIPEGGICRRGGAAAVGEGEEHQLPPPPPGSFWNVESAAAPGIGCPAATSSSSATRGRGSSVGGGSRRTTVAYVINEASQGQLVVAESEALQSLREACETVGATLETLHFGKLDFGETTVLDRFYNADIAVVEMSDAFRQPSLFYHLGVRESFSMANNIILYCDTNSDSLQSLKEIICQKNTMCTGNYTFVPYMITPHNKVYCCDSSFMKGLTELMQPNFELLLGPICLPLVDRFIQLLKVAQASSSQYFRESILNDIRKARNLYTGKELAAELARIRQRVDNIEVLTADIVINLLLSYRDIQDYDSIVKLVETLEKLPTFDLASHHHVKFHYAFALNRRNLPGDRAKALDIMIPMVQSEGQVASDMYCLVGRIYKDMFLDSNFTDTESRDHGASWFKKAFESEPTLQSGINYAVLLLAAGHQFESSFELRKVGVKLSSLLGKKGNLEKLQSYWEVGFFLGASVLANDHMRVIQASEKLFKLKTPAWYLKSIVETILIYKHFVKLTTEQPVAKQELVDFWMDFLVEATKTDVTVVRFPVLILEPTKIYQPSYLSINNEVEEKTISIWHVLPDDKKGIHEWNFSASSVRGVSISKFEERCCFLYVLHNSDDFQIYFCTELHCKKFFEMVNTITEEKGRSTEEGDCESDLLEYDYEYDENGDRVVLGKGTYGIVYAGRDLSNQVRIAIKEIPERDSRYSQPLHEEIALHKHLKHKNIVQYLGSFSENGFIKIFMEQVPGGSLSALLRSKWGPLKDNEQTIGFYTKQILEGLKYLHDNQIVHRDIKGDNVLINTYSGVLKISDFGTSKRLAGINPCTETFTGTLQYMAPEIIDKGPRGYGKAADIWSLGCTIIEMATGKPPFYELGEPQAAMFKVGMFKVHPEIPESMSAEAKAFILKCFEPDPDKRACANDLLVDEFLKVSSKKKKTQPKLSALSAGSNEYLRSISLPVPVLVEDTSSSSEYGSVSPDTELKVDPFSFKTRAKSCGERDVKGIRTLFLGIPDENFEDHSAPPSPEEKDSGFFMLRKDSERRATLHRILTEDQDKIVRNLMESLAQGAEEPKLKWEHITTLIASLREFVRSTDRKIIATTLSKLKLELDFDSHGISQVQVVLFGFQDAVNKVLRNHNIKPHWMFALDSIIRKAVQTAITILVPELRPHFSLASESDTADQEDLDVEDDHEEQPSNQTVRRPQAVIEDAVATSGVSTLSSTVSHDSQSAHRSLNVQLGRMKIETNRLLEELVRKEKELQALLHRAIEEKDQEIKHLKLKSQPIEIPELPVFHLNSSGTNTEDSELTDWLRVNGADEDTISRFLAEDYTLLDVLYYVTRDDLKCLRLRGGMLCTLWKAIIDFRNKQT
# protocol: Inhibition of N-terminus FLAG-tagged ASK1 expressed in baculovirus expression system using [gamma-33P]-ATP measured after 60 mins by scintillation counting
pIC50: −log10 of the molar value.
quantity-name: pIC50

QUERY: Dear colleague, I am looking for the recorded pIC50 of the following compound: CC(C)(N)C(=O)NCCn1ccc2ncnc(Nc3ccc(Oc4cccc5sncc45)c(Cl)c3)c21
RESULT: < 5.00

====

# protocol: Metabolic stability in mouse liver microsomes at 1 umol/L after 20 mins by HPLC analysis
# Type: ADME, Microsome
# cond: read-out: Stability
quantity-name: microsomal CLint at 1 µM
Include the unit after the number when you answer.

Examples with answers:
{"structure-string": "CC(C)(CO)C(=O)NCCn1ccc2ncnc(Nc3ccc(Oc4cccc5sncc45)c(Cl)c3)c21", "microsomal CLint at 1 µM": "88 µL/min/mg"}
{"structure-string": "CC(C)(C)C(=O)NCCn1ccc2ncnc(Nc3ccc(Oc4cccc5sncc45)c(Cl)c3)c21", "microsomal CLint at 1 µM": "108 µL/min/mg"}

QUERY: Can you share its microsomal CLint at 1 µM? I mean this compound: CC(C)(O)C(=O)NCCn1ccc2ncnc(Nc3ccc(Oc4cccc5sncc45)c(Cl)c3)c21
RESULT: 145 µL/min/mg

====

# assayed-system: Vascular endothelial growth factor receptor 2 (Homo sapiens, UniProt P35968)
# Sequence (P35968 whole entry): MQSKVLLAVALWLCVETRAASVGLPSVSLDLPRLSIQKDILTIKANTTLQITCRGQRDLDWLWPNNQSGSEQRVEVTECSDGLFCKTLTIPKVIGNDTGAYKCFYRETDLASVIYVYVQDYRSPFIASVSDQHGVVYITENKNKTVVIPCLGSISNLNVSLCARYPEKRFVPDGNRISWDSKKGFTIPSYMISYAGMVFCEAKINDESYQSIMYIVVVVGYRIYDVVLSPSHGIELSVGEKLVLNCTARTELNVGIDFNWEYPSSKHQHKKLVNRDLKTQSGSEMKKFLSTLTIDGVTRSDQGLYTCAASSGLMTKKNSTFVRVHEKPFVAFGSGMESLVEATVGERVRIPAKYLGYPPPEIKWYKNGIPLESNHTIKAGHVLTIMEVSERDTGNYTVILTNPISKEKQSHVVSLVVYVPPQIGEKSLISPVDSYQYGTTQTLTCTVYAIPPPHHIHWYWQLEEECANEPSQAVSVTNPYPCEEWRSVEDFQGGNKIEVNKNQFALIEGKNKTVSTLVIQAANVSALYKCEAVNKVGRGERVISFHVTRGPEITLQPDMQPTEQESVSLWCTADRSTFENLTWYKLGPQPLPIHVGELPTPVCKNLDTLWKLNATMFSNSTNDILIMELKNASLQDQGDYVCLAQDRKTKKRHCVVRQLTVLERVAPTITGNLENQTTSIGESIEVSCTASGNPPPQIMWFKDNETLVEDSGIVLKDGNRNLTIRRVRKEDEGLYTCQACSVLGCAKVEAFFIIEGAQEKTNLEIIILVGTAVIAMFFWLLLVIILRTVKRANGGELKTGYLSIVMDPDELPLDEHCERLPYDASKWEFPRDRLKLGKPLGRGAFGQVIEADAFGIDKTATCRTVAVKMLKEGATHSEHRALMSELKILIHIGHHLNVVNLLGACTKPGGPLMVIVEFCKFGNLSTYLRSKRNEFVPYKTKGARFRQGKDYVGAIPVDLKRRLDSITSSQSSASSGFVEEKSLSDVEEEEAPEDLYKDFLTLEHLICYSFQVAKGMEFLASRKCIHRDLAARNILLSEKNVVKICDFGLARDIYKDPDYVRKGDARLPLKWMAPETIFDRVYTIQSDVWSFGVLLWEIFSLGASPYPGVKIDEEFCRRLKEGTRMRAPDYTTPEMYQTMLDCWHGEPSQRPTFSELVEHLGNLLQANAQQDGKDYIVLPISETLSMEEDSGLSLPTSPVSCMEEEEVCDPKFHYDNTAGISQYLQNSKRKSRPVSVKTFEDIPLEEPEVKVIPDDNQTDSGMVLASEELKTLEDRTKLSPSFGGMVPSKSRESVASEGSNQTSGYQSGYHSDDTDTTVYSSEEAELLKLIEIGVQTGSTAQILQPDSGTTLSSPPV
pIC50: −log10 of the molar value.
quantity-name: pIC50

QUERY: Could you share what pIC50 was measured for CC(C)(N)C(=O)NCCn1ccc2ncnc(Nc3ccc(Oc4cccc5sncc45)c(Cl)c3)c21 , tested on Vascular endothelial growth factor receptor 2 (Homo sapiens, UniProt P35968)?
RESULT: < 5.00

====

Measured pIC50 by item
# assayed-system: Epidermal growth factor receptor (Homo sapiens)
# protocol: Inhibition of N-terminus peptide-tagged human recombinant EGFR expressed using baculovirus infection system using [gamma-33P]-ATP preincubated with compound for 5 mins measured after 10 mins by scintillation counting
Schema: pIC50 number; meaning minus log10 of the concentration expressed in molar units.

{"structure-string": "O=C1NCc2ccc(Oc3ccc(Nc4ncnc5ccn(CCO)c45)cc3Cl)cc21", "assayed-system": "Epidermal growth factor receptor (Homo sapiens)", "pIC50": 8.11}
{"structure-string": "OCCn1ccc2ncnc(Nc3ccc(Oc4cccc5sccc45)c(Cl)c3)c21", "assayed-system": "Epidermal growth factor receptor (Homo sapiens)", "pIC50": 8.06}
{"structure-string": "OCCn1ccc2ncnc(Nc3ccc(Oc4cccc5sncc45)c(Cl)c3)c21", "assayed-system": "Epidermal growth factor receptor (Homo sapiens)", "pIC50": 8.39}
{"structure-string": "O=C1NCc2cccc(Oc3ccc(Nc4ncnc5ccn(CCO)c45)cc3Cl)c21", "assayed-system": "Epidermal growth factor receptor (Homo sapiens)", "pIC50": 7.68}
{"structure-string": "O=C1Cc2c(cccc2Oc2ccc(Nc3ncnc4ccn(CCO)c34)cc2Cl)N1", "assayed-system": "Epidermal growth factor receptor (Homo sapiens)", "pIC50": 8.52}

QUERY: Item OCCn1ccc2ncnc(Nc3ccc(Oc4cccc5[nH]ccc45)c(Cl)c3)c21 with Epidermal growth factor receptor (Homo sapiens) - pIC50?
RESULT: 8.51

====

# assayed-system: Mitogen-activated protein kinase 8 (Homo sapiens)
# Sequence (P45983 whole entry): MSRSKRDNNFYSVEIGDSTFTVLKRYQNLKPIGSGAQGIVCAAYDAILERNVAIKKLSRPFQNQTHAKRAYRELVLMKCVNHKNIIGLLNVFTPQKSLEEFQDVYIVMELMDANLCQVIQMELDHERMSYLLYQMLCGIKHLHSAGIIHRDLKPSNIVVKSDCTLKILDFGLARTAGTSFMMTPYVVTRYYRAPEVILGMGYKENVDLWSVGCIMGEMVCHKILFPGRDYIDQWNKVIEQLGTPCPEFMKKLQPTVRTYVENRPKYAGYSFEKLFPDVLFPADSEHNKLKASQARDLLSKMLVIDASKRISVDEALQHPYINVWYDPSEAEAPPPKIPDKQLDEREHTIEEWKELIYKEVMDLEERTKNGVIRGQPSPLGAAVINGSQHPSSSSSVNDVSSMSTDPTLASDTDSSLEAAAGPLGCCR
# protocol: Inhibition of N-terminus FLAG-tagged JNK1 expressed in baculovirus expression system using [gamma-33P]-ATP measured after 60 mins by scintillation counting
pIC50: −log10 of the molar value.
quantity-name: pIC50

QUERY: Requested field: pIC50. Item: CC(C)(N)C(=O)NCCn1ccc2ncnc(Nc3ccc(Oc4cccc5sncc45)c(Cl)c3)c21
RESULT: < 5.00

====

# assayed-system: Platelet-derived growth factor receptor beta (Homo sapiens, UniProt P09619)
quantity-name: IC50

QUERY: Using the record for CC(C)(N)C(=O)NCCn1ccc2ncnc(Nc3ccc(Oc4cccc5sncc45)c(Cl)c3)c21 , report its IC50.
RESULT: > 10 µM

====

# assayed-system: Receptor tyrosine-protein kinase erbB-4 (Homo sapiens, UniProt Q15303)
# protocol: Inhibition of N-terminus peptide-tagged human recombinant HER4 expressed using baculovirus infection system using [gamma-33P]-ATP preincubated with compound for 5 mins measured after 10 mins by scintillation counting
quantity-name: IC50 (nM)
Write the number in nM without appending the unit.

QUERY: Record request: IC50 value, item CC(C)(N)C(=O)NCCn1ccc2ncnc(Nc3ccc(Oc4cccc5sncc45)c(Cl)c3)c21
RESULT: 79

====

# assayed-system: Serine/threonine-protein kinase PLK1 (Homo sapiens, UniProt P53350)
pIC50: −log10 of the molar value.
quantity-name: pIC50

QUERY: Any idea what its pIC50 is? The molecule is CC(C)(N)C(=O)NCCn1ccc2ncnc(Nc3ccc(Oc4cccc5sncc45)c(Cl)c3)c21
RESULT: < 5.00

====

# assayed-system: Angiopoietin-1 receptor (Homo sapiens, UniProt Q02763)
# Sequence (Q02763 whole entry): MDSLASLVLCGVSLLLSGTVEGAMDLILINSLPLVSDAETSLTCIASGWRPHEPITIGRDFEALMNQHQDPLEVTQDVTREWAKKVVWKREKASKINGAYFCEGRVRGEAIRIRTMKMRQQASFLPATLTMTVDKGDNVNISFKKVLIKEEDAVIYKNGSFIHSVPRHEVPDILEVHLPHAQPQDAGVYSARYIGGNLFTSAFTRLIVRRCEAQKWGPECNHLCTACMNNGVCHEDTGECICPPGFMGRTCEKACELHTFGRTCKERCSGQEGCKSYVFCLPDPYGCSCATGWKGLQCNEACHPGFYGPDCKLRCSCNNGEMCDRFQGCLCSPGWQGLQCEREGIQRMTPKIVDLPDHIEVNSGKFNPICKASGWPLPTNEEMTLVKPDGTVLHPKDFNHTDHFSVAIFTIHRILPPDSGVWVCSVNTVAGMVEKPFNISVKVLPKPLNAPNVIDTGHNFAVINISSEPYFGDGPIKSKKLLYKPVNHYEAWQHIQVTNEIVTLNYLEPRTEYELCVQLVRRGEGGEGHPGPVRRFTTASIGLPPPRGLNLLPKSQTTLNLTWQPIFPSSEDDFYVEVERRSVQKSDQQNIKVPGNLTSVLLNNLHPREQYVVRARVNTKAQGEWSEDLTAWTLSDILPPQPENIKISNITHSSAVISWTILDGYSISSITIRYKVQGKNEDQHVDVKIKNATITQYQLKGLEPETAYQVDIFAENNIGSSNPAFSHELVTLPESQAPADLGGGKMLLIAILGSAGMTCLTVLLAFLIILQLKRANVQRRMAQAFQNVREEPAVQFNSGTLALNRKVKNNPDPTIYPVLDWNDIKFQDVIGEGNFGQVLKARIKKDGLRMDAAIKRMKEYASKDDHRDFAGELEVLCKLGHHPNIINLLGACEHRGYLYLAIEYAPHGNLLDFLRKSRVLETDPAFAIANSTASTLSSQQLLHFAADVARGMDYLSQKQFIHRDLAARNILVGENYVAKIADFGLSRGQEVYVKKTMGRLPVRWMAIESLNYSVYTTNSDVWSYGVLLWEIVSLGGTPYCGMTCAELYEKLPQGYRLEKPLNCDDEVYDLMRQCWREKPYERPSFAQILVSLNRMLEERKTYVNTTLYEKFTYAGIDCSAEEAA
# protocol: Inhibition of TIE2 using ATP preincubated with compound for 5 mins measured after 10 mins
quantity-name: pIC50
Reminder that pIC50 means the negative base-10 logarithm of the concentration expressed in mol/L.

QUERY: Fill in: pIC50 of CC(C)(N)C(=O)NCCn1ccc2ncnc(Nc3ccc(Oc4cccc5sncc45)c(Cl)c3)c21 is ___
RESULT: 5.49

====

# assayed-system: Aurora kinase B (Homo sapiens)
# Sequence (Q96GD4 whole entry): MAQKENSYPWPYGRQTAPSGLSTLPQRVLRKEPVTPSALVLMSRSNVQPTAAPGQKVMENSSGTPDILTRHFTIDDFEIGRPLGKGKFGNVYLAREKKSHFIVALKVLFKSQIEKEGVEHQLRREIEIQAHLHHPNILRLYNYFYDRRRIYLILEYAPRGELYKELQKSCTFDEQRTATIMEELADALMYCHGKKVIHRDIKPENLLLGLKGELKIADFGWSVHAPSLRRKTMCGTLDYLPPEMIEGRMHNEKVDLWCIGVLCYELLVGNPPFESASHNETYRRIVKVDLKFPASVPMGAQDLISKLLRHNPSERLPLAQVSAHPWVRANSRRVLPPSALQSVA
pIC50: −log10 of the molar value.
quantity-name: pIC50

QUERY: Which pIC50 is reported for this compound? CC(C)(N)C(=O)NCCn1ccc2ncnc(Nc3ccc(Oc4cccc5sncc45)c(Cl)c3)c21
RESULT: < 5.00

====

Measured microsomal CLint at 1 µM by item
# protocol: Metabolic stability in mouse liver microsomes at 1 umol/L after 20 mins by HPLC analysis
# Assay type: ADME, Microsome
# cond: read-out: Stability
Answer with a number only, understood to be in µL/min/mg.

Worked examples, 4 compounds total:
{"structure-string": "CC(=O)NCCn1ccc2ncnc(Nc3ccc(Oc4cccc5sncc45)c(Cl)c3)c21", "unit-string": "µL/min/mg", "microsomal CLint at 1 µM": 100}
{"structure-string": "OCCn1ccc2ncnc(Nc3ccc(Oc4cccc5sncc45)c(Cl)c3)c21", "unit-string": "µL/min/mg", "microsomal CLint at 1 µM": 142}
{"structure-string": "O=C(NCCn1ccc2ncnc(Nc3ccc(Oc4cccc5sncc45)c(Cl)c3)c21)[C@@H]1CCCN1", "unit-string": "µL/min/mg", "microsomal CLint at 1 µM": 74}
{"structure-string": "CC(C)(N)C(=O)NCCn1ccc2ncnc(Nc3ccc(Oc4cccc5sncc45)c(Cl)c3)c21", "unit-string": "µL/min/mg", "microsomal CLint at 1 µM": 77}

QUERY: # lookup: microsomal CLint at 1 µM of O=C1Cc2c(cccc2Oc2ccc(Nc3ncnc4ccn(CCO)c34)cc2Cl)N1
RESULT: 66

QUERY: Return reported microsomal CLint at 1 µM; argument: CC(C)(C(=O)NCCn1ccc2ncnc(Nc3ccc(Oc4cccc5sncc45)c(Cl)c3)c21)S(C)(=O)=O
RESULT: 76

QUERY: What microsomal CLint at 1 µM value was documented for this compound, Cn1ncc2c(Oc3ccc(Nc4ncnc5ccn(CCO)c45)cc3Cl)cccc21 ?
RESULT: 106

QUERY: Quick one: microsomal CLint at 1 µM for OCCn1ccc2ncnc(Nc3ccc(Oc4cccc5[nH]ncc45)c(Cl)c3)c21 ?
RESULT: 123

QUERY: Entry OCCn1ccc2ncnc(Nc3ccc(Oc4cccc5sccc45)c(Cl)c3)c21 : reported microsomal CLint at 1 µM = ?
RESULT: 24

meta.source: ChEMBL document CHEMBL2046372
